Reference source for all entries: patent US9289430B2

assay: Fecal recovery of orally administered compounds; format: in vivo, Sprague-Dawley rats; settings: rats, oral gavage, nominal 10 mg/kg (actual 7.6-11 mg/kg), feces 0-48 hr after dosing
Observation type: % recovered in feces
Put your answer as a value accompanied by its unit after it.

Inquiry: I'd like to know its % recovered in feces. The molecule in question is O=C(O)CCSCc1cccc(C(=O)Nc2ccc(N3CCCCC3)cc2C(=O)Nc2ccn(-c3cccc(C(F)(F)F)c3)n2)c1 [Example 7]
Reply text: 9.5%

Inquiry: Item: O=C(O)c1cccc(SCc2cccc(C(=O)Nc3ccc(N4CCCCC4)cc3C(=O)Nc3ccn(-c4cccc(C(F)(F)F)c4)n3)c2)c1 [Example 18]
Reply text: 60%

Inquiry: Here is the next molecule: CN(CCN1CCOCC1)C(=O)c1cccc(C(=O)Nc2ccc(N3CCCCC3)cc2C(=O)Nc2ccn(-c3cccc(C(F)(F)F)c3)n2)c1 [Example 11]
Reply text: 47%

====

assay: Determination of compound Cmax and AUC after oral gavage; format: in vivo, Sprague-Dawley rats; details: Sprague-Dawley, rat plasma, nominal 10 mg/kg (actual 7.6-11 mg/kg), sampling 0.5-4 h
I'd be grateful if you could share measured Cmax for these entries.
Give the value, in units of ng/mL, as a plain number.

Inquiry: GET /values?readout=Cmax&item= CN(CCN1CCOCC1)C(=O)c1cccc(C(=O)Nc2ccc(Cl)cc2C(=O)Nc2ccn(-c3cccc(C(F)(F)F)c3)n2)c1 [Example 14, 2,2,2-trifluoroacetate]
Reply text: 487

Inquiry: What about `O=C(O)c1cccc(SCc2cccc(C(=O)Nc3ccc(N4CCCCC4)cc3C(=O)Nc3ccn(-c4cccc(C(F)(F)F)c4)n3)c2)c1` ?
Reply text: 1820

====

assay: Fecal recovery of orally administered compounds; assay type: in vivo, Sprague-Dawley rats; conditions: rats, oral gavage, nominal 10 mg/kg (actual 7.6-11 mg/kg), feces 0-48 hr after dosing
Can you tell me % recovered in feces for the items I'm about to list?
Report the figure in % without appending any unit label.

Inquiry: For the compound `O=C(O)CCOCCOCCOCCNC(=O)Cc1cccc(SCc2cccc(C(=O)Nc3ccc(N4CCCCC4)cc3C(=O)Nc3ccn(-c4cccc(C(F)(F)F)c4)n3)c2)c1` , what % recovered in feces is on record?
Reply text: 9.5

Inquiry: Entry to check: CN(CCN1CCOCC1)C(=O)c1cccc(C(=O)Nc2ccc(Cl)cc2C(=O)Nc2ccn(-c3cccc(C(F)(F)F)c3)n2)c1 [Example 14, 2,2,2-trifluoroacetate]
Reply text: 6.6

Inquiry: Next compound up: `O=C(O)CCOCCOCCOCCNC(=O)c1cccc(C(=O)Nc2ccc(Cl)cc2C(=O)Nc2ccn(-c3cccc(C(F)(F)F)c3)n2)c1`
Reply text: 17

Inquiry: Next: `CN(CCOCCOCCOCCC(=O)O)C(=O)c1cccc(C(=O)Nc2ccc(N3CCCCC3)cc2C(=O)Nc2ccn(-c3cccc(C(F)(F)F)c3)n2)c1`
Reply text: 17

====

assay: Stability in simulated gastric and intestinal fluid; assay type: in vitro ADME; settings: simulated intestinal fluid with 3 mg/mL pancreatin, 6 hr, 1-20 μM
Please provide measured % remaining, SIF for the entries that follow.
Kindly answer with a numeric value in %, unit omitted.

Inquiry: Which % remaining, SIF value belongs to `CN(CCOCCOCCOCCC(=O)O)C(=O)c1cccc(C(=O)Nc2ccc(N3CCCCC3)cc2C(=O)Nc2ccn(-c3cccc(C(F)(F)F)c3)n2)c1` ?
Reply text: 97

Inquiry: Then what about the compound CN(CCN1CCOCC1)C(=O)c1cccc(C(=O)Nc2ccc(Cl)cc2C(=O)Nc2ccn(-c3cccc(C(F)(F)F)c3)n2)c1 [Example 14, 2,2,2-trifluoroacetate] ?
Reply text: 72

Inquiry: `O=C(O)CCOCCOCCOCCNC(=O)c1cccc(C(=O)Nc2ccc(Cl)cc2C(=O)Nc2ccn(-c3cccc(C(F)(F)F)c3)n2)c1` ?
Reply text: 95

Inquiry: Now try `O=C(O)CCOCCOCCOCCNC(=O)Cc1cccc(SCc2cccc(C(=O)Nc3ccc(N4CCCCC4)cc3C(=O)Nc3ccn(-c4cccc(C(F)(F)F)c4)n3)c2)c1` .
Reply text: 95
